- Test system: Sporothrix schenckii
- method: Antifungal activity against Sporothrix schenckii SSA29 isolate from cutaneous-lymphatic sporotrichosis patient after 72 hrs by Sensititre YeastOne method
- Assay type: functional

- compound: "OC(Cn1cncn1)(Cn1cncn1)c1ccc(F)cc1F"
  quantityUnit: "µg/mL"
  valueOperator: ">"
  MIC: 256
- compound: "CCC(C)n1ncn(-c2ccc(N3CCN(c4ccc(OCC5COC(Cn6cncn6)(c6ccc(Cl)cc6Cl)O5)cc4)CC3)cc2)c1=O (stereo unspecified)"
  quantityUnit: "µg/mL"
  valueOperator: "="
  MIC: 0.25
- compound: "Nc1nc(=O)[nH]cc1F"
  quantityUnit: "µg/mL"
  valueOperator: "="
  MIC: 16
- compound: "CC(=O)N1CCN(c2ccc(OCC3COC(Cn4ccnc4)(c4ccc(Cl)cc4Cl)O3)cc2)CC1 (stereo unspecified)"
  quantityUnit: "µg/mL"
  valueOperator: "="
  MIC: 0.25
- compound: "C[C@@H](c1ncncc1F)[C@](O)(Cn1cncn1)c1ccc(F)cc1F"
  quantityUnit: "µg/mL"
  valueOperator: "="
  MIC: 4
- compound: "C[C@@H]1[C@H](O)[C@@H](C)/C=C/C=C/C=C/C=C/C=C/C=C/C=C/[C@H](O[C@@H]2O[C@H](C)[C@@H](O)[C@H](N)[C@@H]2O)C[C@@H]2O[C@](O)(C[C@@H](O)C[C@@H](O)[C@H](O)CC[C@@H](O)C[C@@H](O)CC(=O)O[C@H]1C)C[C@H](O)[C@H]2C(=O)O"
  quantityUnit: "µg/mL"
  valueOperator: "="
  MIC: 0.06
